The reported numbers originate from patent US20120172295A1.

biological target: GLP-1 receptor (UniProt P43220 24-463, limits assumed); experiment: cell-based or functional assay
Non-standard residues stand in square brackets, D forms with d. Groups on a side chain read outwards from the residue. No end group written: not given here. *: point of attachment. PEG 40 kDa = 40 kDa polyethylene glycol attached to Cys; Stearoyl = CCCCCCCCCCCCCCCCCC(=O)*; Palmitoyl = CCCCCCCCCCCCCCCC(=O)*; Aib = CC(C)(N)C(=O)O
Here, each record is paired with measured log10 EC50 data.
Remember, log10 of EC50, in nM.

Please review the entries below; each comes with its answer.
[
  {
    "binder": "HSQGTFTSDK([Trp-Stearoyl])SKYLDERRAKDFVC(PEG 40 kDa)WLMNT-NH2 [E16 K20-glucagon-NH2 with K10-W-C18 and C24-40K PEG (SEQ ID NO: 548)]",
    "log10 EC50": 0.21
  },
  {
    "binder": "HSQGTFTSDK(Stearoyl)SKYLDERRAKDFVC(PEG 40 kDa)WLMNT-NH2 [E16 K20-glucagon-NH2 with K10-C18 and C24-40K PEG (SEQ ID NO: 547)]",
    "log10 EC50": -0.82
  },
  {
    "binder": "HSQGTFTSDK([Trp-Palmitoyl])SKYLDERRAKDFVC(PEG 40 kDa)WLMNT-NH2 [E16 K20-glucagon-NH2 with K10-W-C16 and C24-40K PEG (SEQ ID NO: 546)]",
    "log10 EC50": -0.64
  },
  {
    "binder": "H[Aib]QGTFTSDK(Palmitoyl)SKYLDEQAAKEFIC(PEG 40 kDa)WLMNT-NH2 [C16 acylated Glucagon analog peptide (SEQ ID NO: 536)]",
    "log10 EC50": -1.30
  }
]

Continue with the binder presented below.
input: Provide only the value of recorded log10 EC50 for HSQGTFTSDYSKYLDEQAAKEFIC(PEG 40 kDa)WLMNT-NH2 [Chimera 2 Cys24 (40K)]
output: -1.40
